assay.target: T1, extracellular domain of FGFR2c protein (Example 1) (UniProt P21802 22-377)
T1 construct: extracellular domain
T1 sequence (P21802 22-377): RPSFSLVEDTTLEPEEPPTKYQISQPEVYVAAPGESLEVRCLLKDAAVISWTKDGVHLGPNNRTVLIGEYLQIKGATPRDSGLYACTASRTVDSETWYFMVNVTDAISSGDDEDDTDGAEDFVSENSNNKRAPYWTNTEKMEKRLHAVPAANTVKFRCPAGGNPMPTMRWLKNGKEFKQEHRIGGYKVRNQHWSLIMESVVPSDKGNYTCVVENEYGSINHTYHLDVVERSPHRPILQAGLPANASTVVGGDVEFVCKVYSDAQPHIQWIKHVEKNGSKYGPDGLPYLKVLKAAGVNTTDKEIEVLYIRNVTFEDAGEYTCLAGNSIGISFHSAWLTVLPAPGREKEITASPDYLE
test.name: phage ELISA
measurement.label: OD (450 nm) value
Write the value as a bare number.

3E7 scFv displayed on phage (scFv) scFv: QVQLQQSGAELVKPGASVKMSCKASGYTFTIYNIHWVRQTPGQGLEWIGLIYPDNGDTSYNQKFKAKATLTADKSSSTAYMQLSSLTSEDSAVYYCARGGFDYWGQGTTLTVSSGGGGSGGGGSGGGGSNIVMTQSQKFMSTSVGDRVSVTCKASQNVGTNVAWYQQKPGQSPKALIYSASYRYSGVPDRFTGSGSGTDFTLTISGVQAEDLADYYCQQHYNTPYTFGGGTKLEIK : 0.034

Lab note: next binder to report on.
Item 1D7 scFv displayed on phage (scFv) scFv: QIQLQQSGAELVKPGASVKMSCKASGYTFRYYNMHWVKRTPGQGLEWIGLIYPDNGDTSYNQKFKGKATLTADTSSSTAYMQLSSLTSEDSAVYYCARGGLDYWGQGTSLTVSSGGGGSGGGGSGGGGSDIQMTQSPSSMSASLGDRITITCQATQDIVKNLNWYQQKPGKPPSFLIYYATELAEGVPSRFSGSGSGSDYSLTISNLESEDFADYYCLQFYEFPLTFGAGTKLELK has what recorded OD (450 nm) value?
0.059
